Test system: NCI-H82 (human small cell lung cancer cell)
measurement-description: Cell viability assay (Promega CellTiter-Glo), inhibitory effect on NCI-H82
Format: cell-based
assay-setup: 72 h, 3 days of culture
pIC50: −log10 of the molar value.

| cpd-smiles | pIC50 |
| --- | --- |
| CCCCc1c2[n+](cc3c(OC)c(OC)ccc13)CCc1cc3c(cc1-2)OCO3 | 6.06 |
| COc1ccc2c(CCC(C)C)c3[n+](cc2c1OC)CCc1cc2c(cc1-3)OCO2 | 5.87 |
| COc1ccc2cc3[n+](cc2c1OC/C=C(\C)CCC=C(C)C)CCc1cc2c(cc1-3)OCO2 | 6.62 |
| CCCCC(=O)Oc1c(OC)ccc2cc3[n+](cc12)CCc1cc2c(cc1-3)OCO2 | 5.40 |
| CCC(CC)C(=O)Oc1c(OC)ccc2cc3[n+](cc12)CCc1cc2c(cc1-3)OCO2 | 5.55 |
| COc1ccc2c(Cc3ccc(C(F)(F)F)cc3)c3[n+](cc2c1OC)CCc1cc2c(cc1-3)OCO2 | 5.68 |
| COc1ccc2c(CCc3ccccc3)c3[n+](cc2c1OC)CCc1cc2c(cc1-3)OCO2 | 6.18 |
| COc1ccc2c(Cc3ccc(OC(F)(F)F)cc3)c3[n+](cc2c1OC)CCc1cc2c(cc1-3)OCO2 | 6.15 |
| COc1ccc2cc3[n+](cc2c1OCCCBr)CCc1cc2c(cc1-3)OCO2 | 6.40 |
| CCc1c2c(OC)c(OC)ccc2cc2[n+]1CCc1cc3c(cc1-2)OCO3 | 5.83 |
| CCCCCCCc1c2[n+](cc3c(OC)c(OC)ccc13)CCc1cc3c(cc1-2)OCO3 | 6.82 |
| COc1ccc2cc3[n+](cc2c1OCCCCCCBr)CCc1cc2c(cc1-3)OCO2 | 6.47 |
| CCCCCCc1c2c(OC)c(OC)ccc2cc2[n+]1CCc1cc3c(cc1-2)OCO3 | 6.59 |
| COc1ccc2cc3[n+](cc2c1OCCCCOc1ccccc1)CCc1cc2c(cc1-3)OCO2 | 6.54 |
| CCCCCCCCNc1c(OC)ccc2cc3[n+](cc12)CCc1cc2c(cc1-3)OCO2 | 6.35 |
| COc1ccc2cc3[n+](cc2c1NCCc1ccccc1)CCc1cc2c(cc1-3)OCO2 | 6.31 |

* * *

Test system: Con-NCI-H82 cell (NCI-H82 transfected with empty virus vector)
measurement-description: Cell viability assay (Promega CellTiter-Glo), inhibitory effect on Con-NCI-H82 cell
Type: cell-based
assay-setup: Homo sapiens; NCI-H82 transfected with empty virus vector (control); CellTiter-Glo; read-out: inhibitory effect on Con-NCI-H82 (IC50)

| molecule | system-under-test | readout-unit | IC50 |
| --- | --- | --- | --- |
| CCCCCCc1c2c(OC)c(OC)ccc2cc2[n+]1CCc1cc3c(cc1-2)OCO3 [compound AB31767] | Con-NCI-H82 cell (NCI-H82 transfected with empty virus vector) | nM | 260 |
| COc1ccc2c(CCCc3ccccc3)c3[n+](cc2c1OC)CCc1cc2c(cc1-3)OCO2 [compound AB31781] | Con-NCI-H82 cell (NCI-H82 transfected with empty virus vector) | nM | 330 |
| COc1ccc2c(Cc3ccc(C(F)(F)F)cc3)c3[n+](cc2c1OC)CCc1cc2c(cc1-3)OCO2 [compound AB31805] | Con-NCI-H82 cell (NCI-H82 transfected with empty virus vector) | nM | 2110 |
| CCCCC(=O)Oc1c(OC)ccc2cc3[n+](cc12)CCc1cc2c(cc1-3)OCO2 [compound AB31723] | Con-NCI-H82 cell (NCI-H82 transfected with empty virus vector) | nM | 3940 |

Every entry's value here was drawn from patent US20250195502A1.
